target.under.test: Human adrenergic α2A receptor (Homo sapiens, UniProt P08913)
Sequence (P08913 whole entry): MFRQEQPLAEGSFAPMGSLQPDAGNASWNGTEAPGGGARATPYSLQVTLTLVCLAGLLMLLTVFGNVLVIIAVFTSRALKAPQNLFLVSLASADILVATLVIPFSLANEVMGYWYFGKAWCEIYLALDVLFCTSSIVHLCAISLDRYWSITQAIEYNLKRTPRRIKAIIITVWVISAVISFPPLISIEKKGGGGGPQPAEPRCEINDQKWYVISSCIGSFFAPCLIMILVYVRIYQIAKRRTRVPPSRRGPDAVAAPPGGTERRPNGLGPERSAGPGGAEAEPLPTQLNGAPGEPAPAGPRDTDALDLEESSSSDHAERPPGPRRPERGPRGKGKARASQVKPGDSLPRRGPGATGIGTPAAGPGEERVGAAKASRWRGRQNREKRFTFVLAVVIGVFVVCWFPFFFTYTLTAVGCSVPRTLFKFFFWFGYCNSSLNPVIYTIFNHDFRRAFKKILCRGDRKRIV
assay.method.text: β-Arrestin GPCR functional assay, adrenergic α2A (Protocol B)
experimental.conditions: β-arrestin, antagonist vs nor-epinephrine EC80
Could you please report measured pIC50 for the items listed next?
Give bare numbers, as −log10 of the molar value.

Past entries and their recorded results:
{"columns": ["compound", "target.under.test", "pIC50"],
 "data": [
  ["OC(Cn1c2c(c3cc(F)ccc31)C1CCCN1CC2)c1ccncc1 (single isomer, unassigned) [18b]", "Human adrenergic α2A receptor (Homo sapiens, UniProt P08913)", 5.56],
  ["Cc1cc(Cl)c2c(c1)c1c(n2CC(C)(O)c2ccncc2)CCN2CCCC12 (single isomer, unassigned) [91b]", "Human adrenergic α2A receptor (Homo sapiens, UniProt P08913)", 5.75],
  ["Cc1ccc2c(c1)c1c(n2CC(C)(O)c2ccnc(F)c2)CCN2CCCC12 (single isomer, unassigned) [48b]", "Human adrenergic α2A receptor (Homo sapiens, UniProt P08913)", 6.31],
  ["Cc1cc(C)c2c(c1)c1c(n2CC(C)(O)c2cccnc2)CCN2CCCC12 (single isomer, unassigned) [44a]", "Human adrenergic α2A receptor (Homo sapiens, UniProt P08913)", 5.29],
  ["Cc1ccc2c(c1F)c1c(n2CC(C)(O)c2cccnc2)CCN2CCCC12 (single isomer, unassigned) [87d]", "Human adrenergic α2A receptor (Homo sapiens, UniProt P08913)", 5.43]
]}

# batch: return pIC50 for each of the 5 compounds below
1. Cc1cc(Cl)c2c(c1)c1c(n2CC(C)(O)c2ccncc2)CCN2CCCC12 (single isomer, unassigned) [91a]
2. Cc1cc2c3c(n(CC(C)(O)c4ccncc4)c2cc1Cl)CCN1CCCC31 (single isomer, unassigned) [50b]
3. CCCOC(Cn1c2c(c3cc(C)ccc31)CN(C)CC2)c1ccncc1 (single isomer, unassigned) [42a]
4. Cc1cc(F)c2c(c1)c1c(n2CC(O)c2ccncc2)CCN2CCCC12 (single isomer, unassigned) [137b]
5. CC(O)(Cn1c2c(c3cc(F)ccc31)C1CCCN1CC2)c1ccncc1 (single isomer, unassigned) [31b]

Output:
[6.06, 6.25, 5.48, 6.73, 4.95]

# batch: return pIC50 for each of the 3 compounds below
1. Cc1ccc2c(c1)c1c(n2CC(OC2CCCC2)c2ccncc2)CCN(C)C1 (single isomer, unassigned) [35a]
2. CC(O)(Cn1c2c(c3cc(Cl)cc(F)c31)C1CCCN1CC2)c1ccncc1 (single isomer, unassigned) [52a]
3. Cc1ccc2c(c1)c1c(n2CC(C)(O)c2ccnc(F)c2)CCN2CCCC12 (single isomer, unassigned) [48a]

Output:
5.62
5.99
5.95

# batch: return pIC50 for each of the 2 compounds below
1. Cc1cc(C)c2c(c1)c1c(n2CC(C)(O)c2cccnc2)CCN2CCCC12 (single isomer, unassigned) [44b]
2. CC(O)(Cn1c2c(c3cc(Cl)cc(F)c31)C1CCCN1CC2)c1ccncc1 (single isomer, unassigned) [52b]

Output:
[6.04, 6.00]

* * *

target.under.test: UniProtKB P18089
Sequence (P18089 1-450): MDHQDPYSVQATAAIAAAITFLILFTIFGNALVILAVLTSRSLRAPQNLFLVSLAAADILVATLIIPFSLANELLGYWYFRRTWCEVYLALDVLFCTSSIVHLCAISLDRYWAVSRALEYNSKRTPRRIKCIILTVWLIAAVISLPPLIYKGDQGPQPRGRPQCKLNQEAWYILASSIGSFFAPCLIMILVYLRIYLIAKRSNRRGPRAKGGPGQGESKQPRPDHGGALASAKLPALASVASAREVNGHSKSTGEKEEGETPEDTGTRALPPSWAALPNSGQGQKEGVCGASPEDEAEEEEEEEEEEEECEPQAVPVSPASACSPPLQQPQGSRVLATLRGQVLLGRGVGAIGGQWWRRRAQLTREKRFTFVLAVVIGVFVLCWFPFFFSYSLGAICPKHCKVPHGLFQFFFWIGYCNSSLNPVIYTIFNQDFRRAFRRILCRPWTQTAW
assay.method.text: Radioligand binding, adrenergic α2B (Protocol Group B)
Design: purchased Milipore (Millipore)
experimental.conditions: 30 nM compound; Protocol Group B; 0.03 µM
property.name: Percentage inhibition of ligand binding, Adrenergic α2B (30 nM)
Your reply should be a number followed by the unit it is expressed in.

Past entries and their recorded results:
{"columns": ["molecule", "target.under.test", "readout.value"],
 "data": [
  ["OC(Cn1c2c(c3cc(F)ccc31)C1CCCN1CC2)c1ccncc1 (stereo not drawn) [compound 18]", "UniProtKB P18089", "81%"],
  ["Cc1ccc2c(c1)c1c(n2CC(C)(O)c2ccc(F)cc2)CN2CCC1C2 (single isomer, unassigned) [134d]", "UniProtKB P18089", "22%"]
]}

# batch: return Percentage inhibition of ligand binding, Adrenergic α2B (30 nM) for each of the 2 molecules below
1. Cc1cc(F)c2c(c1)c1c(n2CC(C)(O)c2cccnc2)CCN2CCCC12 (single isomer, unassigned) [79d]
2. CC(O)(Cn1c2c(c3cc(Cl)cc(F)c31)CN1CCCC1C2)c1ccncc1 (single isomer, unassigned) [86d]

Output:
1: 3%; 2: 28%

# batch: return Percentage inhibition of ligand binding, Adrenergic α2B (30 nM) for each of the 7 molecules below
1. Cc1ccc2c(c1)c1c(n2CC(O)c2cccnc2)CC2CCCN2C1 (single isomer, unassigned) [27b]
2. Cc1ccc2c(c1)c1c(n2CC(C)(O)c2ccc(F)cc2)CN2CCC1C2 (single isomer, unassigned) [134c]
3. CN1CCc2c(c3cc(C(F)(F)F)ccc3n2CC(OC2CCCC2)c2ccncc2)C1 (single isomer, unassigned) [60b]
4. Cc1ccc2c(c1)c1c(n2CC(O)c2ccncc2F)CCN2CCCC12 (single isomer, unassigned) [14b]
5. Cc1cc(F)cc2c3c(n(CC(C)(O)c4ccncc4)c12)CCN1CCCC31 (single isomer, unassigned) [77a]
6. Cc1cc(F)c2c(c1)c1c(n2CC(O)c2ccncc2)CCN2CCCC12 (single isomer, unassigned) [137b]
7. Cc1ccc2c(c1)c1c(n2CC(OC(N)=O)c2ccncc2)CCN(C)C1 (single isomer, unassigned) [8a]

Output:
48%
8%
28%
100%
30%
107%
21%

# batch: return Percentage inhibition of ligand binding, Adrenergic α2B (30 nM) for each of the 4 molecules below
1. Cc1cc(Cl)c2c(c1)c1c(n2CC(C)(O)c2ccncc2)CCN2CCCC12 (single isomer, unassigned) [91b]
2. OC(Cn1c2c(c3cc(F)cc(F)c31)C1CCCN1CC2)c1ccncc1 (single isomer, unassigned) [144b]
3. Cc1cc2c3c(n(CC(C)(O)c4ccncc4)c2cc1Cl)CCN1CCCC31 (single isomer, unassigned) [50d]
4. Cc1ccc2c(c1)c1c(n2CC(C)(O)c2cncc(F)c2)CCN(C)C1 (single isomer, unassigned) [46b]

Output:
1. 97%
2. 100%
3. −2%
4. 15%
